Target: Serine/threonine-protein kinase mTOR (Homo sapiens)
Measurement Name: pIC50
Scale note: pIC50 = -log10(concentration in M).

Task: API: value(readout= pIC50, system= Serine/threonine-protein kinase mTOR (Homo sapiens), query= CNC(=O)Nc1ccc(-c2nc(N3CCOCC3)nc3c2cnn3C2CCOCC2)cc1 )
Result: 7.64

====

Experiment: Oral bioavailability in BALB/C mouse
Type: ADME, organism-based
Conditions: in vivo
Measurement Name: bioavailability (%)
Answer format: numeric, % implied, no suffix.

Task: What does the data say about its bioavailability? Entry: Cc1nc2c(-c3cnc(N)nc3)nc(N3CCOCC3)nc2n1C(C)C
Result: 100
